Reported values of growth for individual entries
Test system: PC-3 prostate
Test Method Notes: NCI-60 one-dose screen, 48 h (100 = growth as untreated, 0 = no growth, -100 = all killed)
Condition Summary: 10 µM unless noted
Method: Growth inhibition of the PC-3 human tumor cell line is measured as a screen for anti-cancer activity. Cells are grown in 96 well plates and exposed to the test compound for 48 hours. Compounds are tested at a single concentration, which is 10^-5 M for most compounds. The reported endpoint is percent growth (GI% or GIPRCNT), where numbers from 0 - 100% represent growth inhibition, and numbers from -100% - 0 represent cell death. For example, a value of 40 represents 60% growth inhibition. […]
Compounds without any hit were thinned out: in the full panel of roughly 83,000, 20% have a hit.
Give a bare numeral; the unit % is implied.

Some solved entries appear below for comparison.
Compound | Property Name | Recorded Result
CS(=O)(=O)Nc1cc(-c2ccc3ncnc(N4CCc5cc(F)c(Cl)cc54)c3c2)cnc1Cl | growth | 12.9
O=c1[nH]c2ccccc2cc1CSc1ccccc1Nc1nccc(-c2ccc3c(c2)OCO3)n1 | growth | 79.2
Cc1cnc2ccc(Oc3ccccc3-c3ccccc3)nn12 | growth | 105

Ask | System PC-3 prostate. Read-out growth. Item CC1=C(C(=O)Nc2ccccc2)C(c2cccc(Cl)c2Cl)n2c(nc3ccccc32)N1 (centres undefined) . Report value.
Reply | 18.1

Ask | Provide measured growth on PC-3 prostate for C/C(=N/O)c1ccc(NC(=O)CSc2nnc(-c3ccc4nc(-c5ccc(Cl)cc5)[nH]c4c3)o2)cc1 please.
Reply | 41

Ask | // fetch growth; item: CC(C)(C)OC(=O)N1CCC2(CC1)Oc1ccccc1[C@H]1CC(c3ccc(Br)cc3)=NN12 ; system: PC-3 prostate
Reply | 66.6

Ask | // fetch growth for Nc1ccc(-c2ccc3ncnc(N4CCc5cc(F)c(Cl)cc54)c3c2)cn1 ; system: PC-3 prostate
Reply | 19

Ask | Using PC-3 prostate as the test system, report measured growth of N#CCc1nnc(NC(=O)c2ccc(-n3c(=O)[nH]c4ccccc4c3=O)cc2)s1 .
Reply | 105

Ask | Please indicate recorded growth of NS(=O)(=O)c1ccc(Nc2nc(N/N=C/c3cc(Br)c(O)c(Br)c3)nc(Nc3ccccc3)n2)cc1 measured with PC-3 prostate.
Reply | 57.7

====

Test system: MDA-MB-435 melanoma
Test Method Notes: NCI-60 one-dose screen, 48 h (100 = growth as untreated, 0 = no growth, -100 = all killed)
Condition Summary: 10 µM unless noted
About 83,000 compounds went through this panel and 20% of them were active in at least one assay; those are over-represented in the sample as a whole. Active and inactive are the calls of the source. Rule for the calls: active = growth percent below 10; inactive = the rest.
Consider the following compounds and their measured growth readings.

In the examples that follow, each entry is paired with its recorded growth.
Compound | growth
Cn1cc(-c2cc(N)n3nc(-c4c[nH]c5ccccc45)cc3n2)c2cc(Cl)ccc21 | -51.7% (active)
COc1ccc(C(=O)c2c(N)c(C#N)cn2-c2ccc([N+](=O)[O-])cc2)cc1 | 81.1% (inactive)
CC(=O)c1ccc2c(N)c(C(=O)Nc3ccc(C(F)(F)F)cc3)sc2n1 | 48.1% (inactive)
N#CC1=C(c2cccs2)Nc2c(c(-c3ccccc3)nn2-c2ccccc2)C12C(=O)Nc1ccc(Br)cc12 (stereo not drawn) | -40.1% (active)
COc1ccc(NC(=O)Cn2c(/C=C/c3cccc(Br)c3)nc3ccccc3c2=O)cc1 | 67% (inactive)
Clc1ccc2c(NCCNC34CC5CC(CC(C5)C3)C4)ccnc2c1 | -72.3% (active)

Here is another compound to look at.
Ask | Please indicate growth recorded for Cc1cccc(-c2ccccc2Oc2ccc3nnc(Cl)n3n2)c1
Reply | 105% (inactive)

====

System: HOP-92 NSCLC
Test Method Notes: NCI-60 one-dose screen, 48 h
Condition Summary: 10 µM unless noted
This is part of a sample that, as a whole, favours compounds with a hit. Of some 83,000 tested, about 20% had one in any assay. Calls of active or inactive are those of the source. How the source made its calls: active means growth percent below 10; inactive means the rest.
Hi! Could you answer with just one of these? active, inactive

Molecule | Class Name
COc1ccc2[nH]c(O)c(N=Nc3nc(-c4ccc(C#N)cc4)cs3)c2c1 | inactive

Ask | What call does the record list for CN(C)c1nc(NCCNS(=O)(=O)c2ccc(C(=O)/C=C/c3ccccc3)cc2)nc(N2CCOCC2)n1 ?
Reply | inactive

Ask | For O=S(=O)(c1nc(-c2ccc(Br)cc2)oc1-c1ccc(Cl)cc1)N1CCCC(O)C1 (configuration not stated) , which call appears in the assay record?
Reply | active

Ask | Please state the recorded outcome for this molecule: COc1ccccc1Nc1nnc(-c2c[nH]c3ccccc23)o1
Reply | inactive

Ask | What did this assay record as the result for COc1ccc(N=Nc2c(N)nn3c(-c4ccc([N+](=O)[O-])cc4)ccnc23)cc1 ?
Reply | inactive

Ask | Please indicate how the test categorized CC1=C(C)C(=O)C(N2CCSCC2)=CC1=O .
Reply | inactive

Ask | Identify the outcome logged in this assay for the molecule shown: C#CCN(C)CCCOc1ccc(N(CC)C(=O)c2cc(C(C)C)c(O)cc2O)cc1Cl
Reply | active

Ask | What did this assay record as the result for COC(=O)c1c(C(=O)OC)c2c3ccccc3c3ccccc3n2c1C(=O)C(C)(C)C ?
Reply | inactive

Ask | I'd appreciate the recorded outcome for Cc1nn(-c2ccccc2)c2nc(C)n(CC(=O)N/N=C/c3ccccc3O)c(=O)c12 from this test.
Reply | inactive

Ask | Could you check what this test reported for COC(=O)c1c(C(=O)OC)c2ccc3c4ccccc4ccc3n2c1C(=O)C(C)Br (configuration not stated) ?
Reply | inactive

Ask | Which outcome was assigned to Cc1cc(C2(c3cc(C)c(OCC(O)CNc4c(C)n(C)n(-c5ccccc5)c4=O)cc3C(C)C)OC(=O)c3ccccc32)c(C(C)C)cc1OCC(O)CNc1c(C)n(C)n(-c2ccccc2)c1=O (configuration not stated) in this test?
Reply | active

Ask | Lab log entry: O=C(Nc1ccc(Cl)c(C(F)(F)F)c1)N1CCN(c2cc(-c3cn(-c4ccccc4)nc3-c3cccc(O)c3)ccn2)CC1 — outcome as called in the assay?
Reply | active

Ask | Which outcome did this test record for the molecule CC(=O)c1ccc2c(N)c(C(=O)Nc3ccc(C(F)(F)F)cc3)sc2n1 ?
Reply | inactive

Ask | Which outcome was assigned to CN1CCN(C(=O)Oc2cc3c(c4ccccc24)[C@H](CCl)CN3C(=O)c2cc3cc(OCCCN4CCC4)ccc3[nH]2)[C@H]2CSSC[C@H]21 in this test?
Reply | active

Ask | # lookup: test call for Clc1ccc2c(NCCNC34CC5CC(CC(C5)C3)C4)ccnc2c1
Reply | active

Ask | Dear all, I need the recorded test outcome for COc1ccc(NC(=O)NN2C(=O)c3ccccc3N(C)C2c2ccc(OC)cc2)cc1 (configuration not stated) , thank you.
Reply | inactive

Ask | Hi, sorry to bother you, what did the test record for O=C(N/N=C/c1ccc(Cl)cc1)c1ccc(OCc2nc3ccc(Cl)cc3[nH]2)cc1 ?
Reply | inactive

Ask | Tell me the recorded outcome of this test for N/C(=N\c1nc2ccccc2s1)NC(=O)Nc1ccccc1[N+](=O)[O-] .
Reply | active

Ask | Please indicate how the test categorized COc1cc(/C=C/C(=O)c2cnn(-c3cc(=O)[nH]c4ccccc34)c2C)cc(OC)c1OC .
Reply | inactive

====

Tested on: MCF7 breast
Test Method Notes: NCI-60 one-dose screen, 48 h
Condition Summary: 10 µM unless noted
Description: Growth inhibition of the MCF7 human tumor cell line is measured as a screen for anti-cancer activity. Cells are grown in 96 well plates and exposed to the test compound for 48 hours. Compounds are tested at a single concentration, which is 10^-5 M for most compounds. The reported endpoint is percent growth (GI% or GIPRCNT), where numbers from 0 - 100% represent growth inhibition, and numbers from -100% - 0 represent cell death. For example, a value of 40 represents 60% growth inhibition. […]
About 83,000 compounds went through this panel and 20% of them were active in at least one assay; those are over-represented in the sample as a whole. Activity calls are given as the source filed them. The calls were made as follows: active = growth percent below 10; inactive = the rest.
Respond with a class label; see t = active, f = inactive

Check out these entries, answers already filled in.
Molecule | Class Name
CN1C(=O)/C(=C/c2ccco2)S/C1=N/c1nccs1 | f
CN(C)c1ccc(/C=C/c2n(Cc3ccc4ccccc4c3)c3ccccc3[n+]2Cc2ccc3ccccc3c2)cc1 | t
COc1cccc(NC(=O)c2ccc(NC(=O)CCl)s2)c1 | t
CC1=C(C(=O)Nc2ccccc2)C(c2cccc3ccccc23)n2c(nc3ccccc32)N1 (centres undefined) | f
O=C1Nc2ccc(F)cc2/C1=C/C(=O)c1cc2ccccc2oc1=O | f
O=C(Cc1c(-c2ccccc2[N+](=O)[O-])n(-c2ncnc3c2c(-c2ccccc2)c(-c2ccccc2)n3Cc2ccccc2)[nH]c1=O)c1ccc(Cl)c(Cl)c1 | f
O=C1Nc2ccccc2/C1=C/C(=O)c1cc2ccccc2oc1=O | f
COc1ccc(/C=C/C(=O)c2ccc(OC)c(S(N)(=O)=O)c2)c(C(F)(F)F)c1 | t

# evaluate next
Ask | State the result this test recorded for Nc1cc(-c2c[nH]c3ccc(Br)cc23)nc2cc(-c3c[nH]c4ccccc34)nn12 .
Reply | t
